# Test system: S. aureus
# assay-text: Antibacterial activity, MIC by microdilution broth method (CLSI)
# Type: cell-based, Staphylococcus aureus
# details: Staphylococcus aureus, MRSA, clinically isolated MRSA #2931
endpoint-name: MIC (µg/mL)
Response body: numeric value in µg/mL, unit text excluded.

structure	test-system	MIC (µg/mL)
CCCCCCCCCCCCCCCC(=O)O[C@@H]1C[C@@H]2CN(C1)[C@H](C(=O)O)[C@@H]([C@H]1O[C@@H](n3ccc(=O)[nH]c3=O)[C@H](O)[C@@H]1O)O[C@@H]1O[C@H](CN2)[C@@H](O)[C@H]1O	S. aureus	4

Inquiry: Which MIC value belongs to C[C@H]1COc2c(N3CCN(C)CC3)c(F)cc3c(=O)c(C(=O)O)cn1c23 ?
Reply text: 16

Inquiry: Query CN[C@H](CC(C)C)C(=O)N[C@H]1C(=O)N[C@@H](CC(N)=O)C(=O)N[C@H]2C(=O)N[C@H]3C(=O)N[C@H](C(=O)N[C@H](C(=O)O)c4cc(O)cc(O)c4-c4cc3ccc4O)[C@H](O)c3ccc(c(Cl)c3)Oc3cc2cc(c3O[C@@H]2O[C@H](CO)[C@@H](O)[C@H](O)[C@H]2O[C@H]2C[C@](C)(N)[C@H](O)[C@H](C)O2)Oc2ccc(cc2Cl)[C@H]1O next
Reply text: 1

Inquiry: Query CC1(C)S[C@@H]2[C@H](NC(=O)[C@H](N)c3ccccc3)C(=O)N2[C@H]1C(=O)O next
Reply text: 32
